B1: glmS ribozyme (parent)
chain: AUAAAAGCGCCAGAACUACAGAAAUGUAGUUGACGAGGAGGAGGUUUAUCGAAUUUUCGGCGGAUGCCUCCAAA

- Variants of: B1
- test_summary: self-cleavage kobs at 40 uM GlcN6P; higher = faster cleavage; RNA array
- condition_context: with glucosamine-6-phosphate
Fewer inactive variants are shown than the library holds.
self-cleavage kobs at 40 uM GlcN6P: recorded values

| mutant_id | self-cleavage kobs at 40 uM GlcN6P |
| --- | --- |
| C11U U49C G51U | < 1e-05 s⁻¹ |
| C10A A36C | < 1e-05 s⁻¹ |
| C8G C10G C11U A33G U47C C70A C71A | < 1e-05 s⁻¹ |
| A14U U54G | 0.000217 s⁻¹ |
| G44U G51C | < 1e-05 s⁻¹ |
| U46A U55G | 5.8e-05 s⁻¹ |
| G44A G63U | < 1e-05 s⁻¹ |
| U49G C70U | 2.78e-05 s⁻¹ |
| G40U G44A | < 1e-05 s⁻¹ |
| G32A G63U | < 1e-05 s⁻¹ |
| G13U A52U C70G | < 1e-05 s⁻¹ |
| U47A A53G | 0.000816 s⁻¹ |
| U46C C58U | < 1e-05 s⁻¹ |
| A15U C16U | 4.63e-05 s⁻¹ |
| A15U G62C | < 1e-05 s⁻¹ |
| G7U U31G G62A | < 1e-05 s⁻¹ |
| G35C A42U | < 1e-05 s⁻¹ |
| A6C A48U | < 1e-05 s⁻¹ |
| A15U A64U | < 1e-05 s⁻¹ |
| U31A A39U | 0.000161 s⁻¹ |
| U46G A52G C61A | < 1e-05 s⁻¹ |
| A14G G29U | 0.000647 s⁻¹ |
| A33G A52C U55G | < 1e-05 s⁻¹ |
| U49C C61A C70U | < 1e-05 s⁻¹ |
| C19A U31A | 0.000156 s⁻¹ |
| G7A U55C | < 1e-05 s⁻¹ |
| A15G A39G | 0.0013 s⁻¹ |
| G13A A15C A33U G35A C58A | < 1e-05 s⁻¹ |
| G41A G43U A53G C71G | < 1e-05 s⁻¹ |
| G37A U54A | 7.84e-05 s⁻¹ |
| C10U U30G | < 1e-05 s⁻¹ |
| G38A U49A | < 1e-05 s⁻¹ |
| G29U C50A | < 1e-05 s⁻¹ |
| C16G U31A G35C G40A | < 1e-05 s⁻¹ |
| U47C U54G | 0.000121 s⁻¹ |
| A6U G41C | < 1e-05 s⁻¹ |
| G9A G51A | < 1e-05 s⁻¹ |
| C34U A39G | < 1e-05 s⁻¹ |
| G40U A64U | < 1e-05 s⁻¹ |
| A52U G63C A64U | < 1e-05 s⁻¹ |
| A12G G37C U46C A53G C68U | < 1e-05 s⁻¹ |
| A6G A52G A53G C67G | 6.36e-05 s⁻¹ |
| G13U U55G | 2.48e-05 s⁻¹ |
| C8A C11U | < 1e-05 s⁻¹ |
| A6C C50G C61G | 0.000119 s⁻¹ |
| G37C A42U C70A | < 1e-05 s⁻¹ |
| U31A U49G C71U | < 1e-05 s⁻¹ |
| U54C G66A | 0.000397 s⁻¹ |
| C16U A42G C61G | < 1e-05 s⁻¹ |
| C8A G44C C70A | < 1e-05 s⁻¹ |
| G29U G60C C70A | < 1e-05 s⁻¹ |
| A15U G37C G38U | < 1e-05 s⁻¹ |
| C10G A14G C16A G41C | < 1e-05 s⁻¹ |
| U31C C67U | 4.68e-05 s⁻¹ |
| G60C U65G | < 1e-05 s⁻¹ |
| C8U G9A C50G C67U | 6.37e-05 s⁻¹ |
| A36U U49G U65A | < 1e-05 s⁻¹ |
| C50G C67U | 9.57e-05 s⁻¹ |
| G59U C61U | < 1e-05 s⁻¹ |
| U54C | 0.00101 s⁻¹ |
| A12C U30G G32U A33C C58U | < 1e-05 s⁻¹ |
| U47G G60U | < 1e-05 s⁻¹ |
| A6U G38A G40U G51C | < 1e-05 s⁻¹ |
| G7A G29C | < 1e-05 s⁻¹ |
| G13U G43C | < 1e-05 s⁻¹ |
| A6U G7A G44U A52U U55C A64U | < 1e-05 s⁻¹ |
| A15C A39U | 0.000106 s⁻¹ |
| G9A G43U | < 1e-05 s⁻¹ |
| G41C C61G | < 1e-05 s⁻¹ |
| G7A G37C A42U | < 1e-05 s⁻¹ |
| A12U A14G C68U | 0.000526 s⁻¹ |
| C11A G13A | < 1e-05 s⁻¹ |
| A12G A14G U30A U46C U49C U57C | < 1e-05 s⁻¹ |
